Test system: Wolbachia pipientis
TEST_SUMMARY: Anti-Wolbachia Cell-Based Screen
Type: functional
Design: scale not given: in the data most compounds retested in dose-response had high values
TEST_PARAMETERS: 5 µM
Hit rate of the full screen: of about 48,000 compounds, about 13,000 (27%) showed an effect of 50% or more. Some of the results follow.
Percent Effect: recorded values
Give the value, in units of %, as a plain number.

Consider the following illustrative entries.
Cc1nc([C@H]2C[C@@H]3CCN(Cc4ccc5c(c4)OCO5)C[C@H]3O2)no1
-27.54
O=c1cc(-c2cc(O)cc(CCC3CCCCN3)c2)cc[nH]1 (configuration not stated)
29.58

[ask] Provide Percent Effect value for the following molecule: O=C(NC1CCCNC1=O)c1ccc2nc(-c3ccc(F)cc3)cn2c1 (configuration not stated)
[reply] -16.52

[ask] Using the record for Cc1nccn1C1CCCN(C(=O)c2ccnc(-n3ccnc3)c2)C1 (configuration not stated) , state its measured Percent Effect.
[reply] 102.3

[ask] State its Percent Effect for this molecule: CCn1cnnc1C1CCCN(C(=O)COc2ccc(Cl)cc2)C1 (configuration not stated)
[reply] 6.691

[ask] Return reported Percent Effect. Input molecule: CN1CCOC(CNCc2coc(-c3ccccc3)n2)C1 (configuration not stated)
[reply] -3.46

[ask] Return Percent Effect for the following molecule: COC[C@@]12CCO[C@@H]1CCN(Cc1ccccc1F)C2.O=C(O)C(F)(F)F
[reply] -5.713

[ask] Write down Percent Effect measured for item O=C(c1ccnc(-n2ccnc2)c1)N1CCCC(n2cccn2)C1 (configuration not stated)
[reply] 103.2

[ask] Let me know recorded Percent Effect for Cc1ccc(-c2nc(CNCC3CN(C)CCO3)co2)cc1 (configuration not stated) , thanks.
[reply] 108.3

[ask] Indicate the recorded Percent Effect value for this molecule: CCOC(C)c1nc(CN2CCC(CNC(C)=O)CC2)cs1 (configuration not stated)
[reply] -3.059
